tested system: HLA B*0702 (Homo sapiens)
pIC50: −log10 of the molar value. Where a SMILES comes first, the peptide text is derived from it.
Please enter MET where pIC50 is greater than or equal to 5, and NOT MET where it is lower.

Solved cases below.
CC(C)C[C@H](NC(=O)[C@H](Cc1ccccc1)NC(=O)[C@@H]1CCCN1C(=O)[C@@H](N)Cc1c[nH]cn1)C(=O)N[C@@H](CCCCN)C(=O)N[C@@H](CO)C(=O)NCC(=O)N[C@@H](Cc1ccccc1)C(=O)N[C@H](C(=O)N[C@@H](Cc1ccccc1)C(=O)O)[C@@H](C)O (H-HPFLKSGFTF-OH) | MET
CC[C@H](C)[C@H](NC(=O)[C@@H](N)[C@@H](C)O)C(=O)N[C@@H](Cc1ccc(O)cc1)C(=O)NCC(=O)N[C@@H](CCCCN)C(=O)NCC(=O)NCC(=O)N[C@@H](Cc1ccccc1)C(=O)N[C@@H](CCC(N)=O)C(=O)N[C@@H](Cc1ccccc1)C(=O)O (H-TIYGKGGFQF-OH) | NOT MET
CC[C@H](C)[C@H](NC(=O)[C@H](CC(N)=O)NC(=O)[C@H](CCCCN)NC(=O)[C@H](CCCCN)NC(=O)[C@H](CCCCN)NC(=O)[C@H](CC(C)C)NC(=O)[C@@H](N)Cc1ccccc1)C(=O)N[C@H](C(=O)N[C@@H](CC(C)C)C(=O)O)[C@@H](C)O (H-FLKKKNITL-OH) | NOT MET
CC[C@H](C)[C@H](NC(=O)[C@H](CC(N)=O)NC(=O)[C@@H](N)CCCNC(=N)N)C(=O)N[C@H](C(=O)N[C@@H](CO)C(=O)N[C@@H](CCCCN)C(=O)N[C@@H](Cc1c[nH]cn1)C(=O)N[C@H](C(=O)N[C@@H](CO)C(=O)N[C@H](C(=O)O)C(C)C)[C@@H](C)O)[C@@H](C)CC (H-RNIISKHTSV-OH) | NOT MET
CC[C@H](C)[C@H](N)C(=O)N1CCC[C@H]1C(=O)N1CCC[C@H]1C(=O)N[C@@H](CCC(N)=O)C(=O)N[C@H](C(=O)N[C@@H](Cc1ccccc1)C(=O)N[C@@H](CC(=O)O)C(=O)N[C@@H](Cc1ccc(O)cc1)C(=O)N1CCC[C@H]1C(=O)N[C@H](C(=O)O)[C@@H](C)CC)C(C)C (H-IPPQVFDYPI-OH) | NOT MET
CC[C@H](C)[C@H](NC(=O)[C@@H]1CCCN1C(=O)[C@@H](N)Cc1ccc(O)cc1)C(=O)N[C@@H](CCC(=O)O)C(=O)N[C@@H](CCCCN)C(=O)N[C@@H](CC(C)C)C(=O)NCC(=O)N[C@@H](Cc1c[nH]cn1)C(=O)N[C@H](C(=O)O)C(C)C (H-YPIEKLGHV-OH) | MET

We next turn to a different molecule, shown below.
Could you tell me if the measured pIC50 of CC(C)C[C@H](NC(=O)[C@H](C)NC(=O)[C@H](CO)NC(=O)[C@@H](NC(=O)[C@H](CCCCN)NC(=O)[C@H](CC(=O)O)NC(=O)[C@H](CCCNC(=N)N)NC(=O)[C@H](CS)NC(=O)[C@@H](N)Cc1c[nH]cn1)[C@@H](C)O)C(=O)O [HCRDKTSAL] (H-HCRDKTSAL-OH) reaches 5 or more?
NOT MET

Sourced from paper PMC8138313
